Reference source: patent US8354422B2

# target.of.assay: C-terminal GST-tagged, recombinant, human IGF-1R, amino acids 954-1367 (Homo sapiens, UniProt P08069)
# Construct: human IGF-1R, amino acids 954-1367 expressed by baculovirus in Sf21 cells; GST (C)
# Sequence (P08069 954-1367): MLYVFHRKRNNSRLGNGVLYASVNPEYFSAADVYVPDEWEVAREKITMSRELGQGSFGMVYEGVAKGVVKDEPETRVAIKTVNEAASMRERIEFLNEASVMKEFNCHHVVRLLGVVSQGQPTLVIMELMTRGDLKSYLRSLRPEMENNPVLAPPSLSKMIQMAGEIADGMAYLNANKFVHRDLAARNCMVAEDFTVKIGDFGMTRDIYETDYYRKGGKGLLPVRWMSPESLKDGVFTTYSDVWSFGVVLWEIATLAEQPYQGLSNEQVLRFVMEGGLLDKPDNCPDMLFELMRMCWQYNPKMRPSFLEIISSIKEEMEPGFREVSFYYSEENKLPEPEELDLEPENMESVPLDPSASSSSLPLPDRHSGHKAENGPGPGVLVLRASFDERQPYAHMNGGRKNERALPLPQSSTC
# test.protocol: IGF-1R kinase activity, homogenous time-resolved fluorescence (HTRF) in vitro kinase assay
# assay.conditions: IGF-1R kinase HTRF assay, ATP 50 μM, biotinylated peptide substrate 0.5 μM, 60 minutes at room temperature
pIC50: −log10 of the molar value.
# Lookup of reported pIC50 keyed by entry

Known pIC50 results, listed for orientation:
compound | value.observed
COc1cc(N(C)C)ccc1Nc1nccc(-c2c(-c3ccc(OCc4ccccc4)c(OC)c3)nc3sccn23)n1 [Example 81] | 7.00 to 7.60
CN(C)CCc1cccc(Nc2nccc(-c3c(-c4ccc(OCc5ccccc5)cc4)nn4ccccc34)n2)c1 [Example 75] | > 7.60
COc1ccc(S(C)(=O)=O)cc1Nc1nccc(-c2c(-c3ccc(OCc4ccccc4)cc3)nc3ccccn23)n1 [Example 35] | 6.30 to 7.00
CN(C)CCc1cccc(Nc2nccc(-c3c(-c4ccc(OCc5ccccc5)cc4)nc4ccccn34)n2)c1 [Example 1] | > 7.60
Fc1ccc(Nc2nccc(-c3c(-c4ccc(OCc5ccccc5)cc4)nc4ccccn34)n2)cc1 [Example 28] | < 6.00

# pIC50 of CCN(CCO)c1cccc(Nc2nccc(-c3c(-c4ccc(OCc5ccccc5)c(OC)c4)nc4ccccn34)n2)c1 [Example 31] = 6.30 to 7.00

# pIC50 of COc1ccc(CCN(C)C)cc1Nc1nccc(-c2c(-c3ccc(OCc4ccccc4)c(OC)c3)nc3ccccn23)n1 [Example 59] = 7.00 to 7.60

# pIC50 of COc1cc(N2CCC(N3CCSCC3)CC2)ccc1Nc1nccc(-c2c(-c3ccc(OCc4ccccc4)c(OC)c3)nc3ccccn23)n1 [Example 56] = 6.30 to 7.00

# pIC50 of COc1cc(-c2nc3ccccn3c2-c2ccnc(Nc3cccc(NC(=O)CN(C)C)c3)n2)ccc1OCc1ccccc1 [Example 66] = 7.00 to 7.60

# pIC50 of CN(C)CC(=O)Nc1cccc(Nc2nccc(-c3c(-c4ccc(OCc5ccccc5)cc4)nc4ccccn34)n2)c1 [Example 67] = 6.30 to 7.00

###

# target.of.assay: C-terminal GST-tagged, recombinant, human IGF-1R, amino acids 954-1367 (Homo sapiens, UniProt P08069)
# Construct: human IGF-1R, amino acids 954-1367 expressed by baculovirus in Sf21 cells; GST (C)
# test.protocol: IGF-1R kinase activity, homogenous time-resolved fluorescence (HTRF) in vitro kinase assay
# assay.conditions: IGF-1R kinase HTRF assay, ATP 50 μM, biotinylated peptide substrate 0.5 μM, 60 minutes at room temperature
test.readout: IC50

Known IC50 results, listed for orientation:
smiles.input | test.readout | value.observed
FC(F)(F)Oc1cc(-c2nc3ccccn3c2-c2ccnc(Nc3cccc(CCN4CCCC4)c3)n2)ccc1OCc1ccccc1 | IC50 | > 1000 nM
COc1cc(-c2nc3ccccn3c2-c2ccnc(Nc3ccc4c(c3)CNCC4)n2)ccc1OCc1ccccc1 | IC50 | 25 to 100 nM

# IC50 of Cc1cc(OCc2ccccc2)ccc1-c1nc2ccccn2c1-c1ccnc(Nc2cccc(CCN(C)C)c2)n1 = 101 to 500 nM
